# pIC50 values compiled below
Molecular target: human PAD4 (Homo sapiens, UniProt Q9UM07)
Construct: human PAD4 (NM_012387), A2-P663, was PCR amplified; His-SUMO (N, cleaved yes)
Sequence (Q9UM07 2-663): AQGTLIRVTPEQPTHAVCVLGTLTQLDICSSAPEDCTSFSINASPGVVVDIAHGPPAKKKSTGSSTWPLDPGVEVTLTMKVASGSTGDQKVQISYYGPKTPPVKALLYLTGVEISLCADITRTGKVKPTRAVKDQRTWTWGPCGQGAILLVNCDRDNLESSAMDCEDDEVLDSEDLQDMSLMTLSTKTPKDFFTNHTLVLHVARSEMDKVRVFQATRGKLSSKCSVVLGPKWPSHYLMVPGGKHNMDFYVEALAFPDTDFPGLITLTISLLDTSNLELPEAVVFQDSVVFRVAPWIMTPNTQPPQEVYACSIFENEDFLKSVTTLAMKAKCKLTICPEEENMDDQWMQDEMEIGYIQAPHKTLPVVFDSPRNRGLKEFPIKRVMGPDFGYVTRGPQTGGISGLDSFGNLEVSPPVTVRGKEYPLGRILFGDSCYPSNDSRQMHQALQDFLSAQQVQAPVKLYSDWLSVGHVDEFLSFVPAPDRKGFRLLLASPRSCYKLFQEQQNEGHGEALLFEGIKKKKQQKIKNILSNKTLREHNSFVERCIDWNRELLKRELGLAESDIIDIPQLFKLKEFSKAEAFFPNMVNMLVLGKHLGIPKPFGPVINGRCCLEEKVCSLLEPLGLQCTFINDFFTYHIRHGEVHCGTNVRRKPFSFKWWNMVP
Assay: In vitro PAD4 BAEE biochemical assay
Details: BAEE substrate 3 mM, 5 nM PAD4, 2 mM calcium chloride; geometric mean of multiple experiments
Lab note — pIC50 values are minus log10 of concentrations in M.

See these solved cases before continuing.
# STRUCTURE, REPORTED_PROPERTY, EXPERIMENTAL_VALUE
records = [
    ("COc1cc(C(=O)N2[C@H]3CC[C@@H]2[C@H](N)C3)cc2nc(-c3cc4ccc5nc4n3C[C@H]3C[C@@H]3COCCC(=O)N[C@@H]5C)n(C)c12", "pIC50", 7.49),
    ("COc1cc(C(=O)N2[C@H]3CC[C@@H]2[C@H](N)C3)cc2nc(-c3cc4ccc5nc4n3CCCCCCCC(=O)NC5(C)C)n(C)c12", "pIC50", 7.13),
]

Lab note: next molecule to report on.
### Prompt Fill in reported pIC50 for this entry: COc1cc(C(=O)N2C[C@H](N)[C@@H]3CC[C@H]2C3)cc2nc(-c3cc4ccc5nc4n3CCCCC[C@@]3(F)C[C@]3(C)C(=O)N[C@@H]5C)n(C)c12
### Response 7.33

###

# pIC50 values compiled below
Target: human PAD4 (Homo sapiens, UniProt Q9UM07)
Construct: human PAD4 (NM_012387), A2-P663, was PCR amplified; His-SUMO (N, cleaved yes)
Assay: In vitro PAD4 BAEE biochemical assay
Settings: BAEE substrate 3 mM, 5 nM PAD4, 2 mM calcium chloride; geometric mean of multiple experiments
Lab note — pIC50 values are minus log10 of concentrations in M.

See these solved cases before continuing.
# COMPOUND, pIC50
records = [
    ("COc1cc(C(=O)N2C[C@H]3OC[C@@H]2[C@@H]3N)cc2nc(-c3cc4ccc5nc4n3CC(F)(F)CCC[C@@H]3C[C@H]3C(=O)N[C@@H]5C)n(C)c12 [Example 707]", 7.68),
    ("COc1cc(C(=O)N2C[C@H](N)[C@@H]3CC[C@H]2C3)cc2nc(-c3cc4ccc5nc4n3CC(F)(F)CCCOC(C)(C)C(=O)N[C@@H]5C)n(C)c12 [Example 460]", 7.15),
    ("COc1cc(C(=O)N2CC[C@@H](OC)[C@@H](N)C2)cc2nc(-c3cc4ccc5nc4n3CCCCCc3ncccc3C(=O)N[C@@H]5C)n(C)c12 [Example 409]", 7.08),
    ("C[C@H]1NC(=O)c2c(cccc2C(F)F)CCCCCn2c(-c3nc4cc(C(=O)N[C@H]5CNCC[C@@H]5F)c(F)cc4n3C)cc3ccc1nc32 [Example 384]", 7.21),
    ("CO[C@@H]1CCCCC(F)(F)Cn2c(-c3nc4cc(C(=O)N[C@H]5CNCC[C@@H]5F)c(F)cc4n3C)cc3ccc(nc32)[C@@H](C)NC1=O [Example 623]", 7.33),
]

### Prompt Fill in reported pIC50 for this entry: C[C@H]1NC(=O)c2ccc(Cl)nc2CCCCCn2c(-c3nc4cc(C(=O)N5C[C@H](N)[C@@H]6CC[C@H]5C6)cc(OC(F)F)c4n3C3CC3)cc3ccc1nc32 [Example 760]
### Response 7.15

### Prompt Fill in reported pIC50 for this entry: C[C@H]1NC(=O)c2ccc(Cl)nc2CCCCCn2c(-c3nc4cc(C(=O)N5C[C@H](N)[C@@H]6CC[C@H]5C6)cc(F)c4n3CC(C)(C)C)cc3ccc1nc32 [Example 947]
### Response 7.04

### Prompt Fill in reported pIC50 for this entry: COCC1(C)CCCCCCn2c(-c3nc4cc(C(=O)N5[C@H]6CC[C@@H]5[C@H](N)C6)cc(OC)c4n3C)cc3ccc(cc32)[C@@H](C)NC1=O (some centres unmarked) [Example 341]
### Response 7.23

### Prompt Fill in reported pIC50 for this entry: COc1cc(C(=O)N2CC[C@@H](OC(F)F)[C@@H](N)C2)cc2nc(-c3cc4ccc5nc4n3CCCCCc3cnccc3C(=O)N[C@@H]5C)n(C)c12 [Example 492]
### Response 6.81

### Prompt Fill in reported pIC50 for this entry: COc1cc(C(=O)N2C[C@H](N)[C@@H]3CC[C@H]2C3)cc2nc(-c3cc4ccc5nc4n3CCCCCc3cccc(F)c3C(=O)N[C@@H]5C)n(C)c12 [Example 902]
### Response 7.32

### Prompt Fill in reported pIC50 for this entry: C[C@H]1NC(=O)[C@H]2C[C@@H]2CCCCn2c(-c3nc4cc(C(=O)N[C@H]5CNCC[C@@H]5F)c(F)cc4n3C)cc3ccc1nc32 [Example 499]
### Response 6.79

###

Molecular target: human PAD4 (Homo sapiens)
Construct: human PAD4 (NM_012387), A2-P663, was PCR amplified; His-SUMO (N, cleaved yes)
Experiment: In vitro PAD4 BAEE biochemical assay
Conditions: BAEE substrate 3 mM, 5 nM PAD4, 2 mM calcium chloride; geometric mean of multiple experiments
REPORTED_PROPERTY: pIC50
Lab note — pIC50 values are minus log10 of concentrations in M.

See these solved cases before continuing.
# COMPOUND, TESTED_SYSTEM, pIC50
measured = [
    ("COc1cc(C(=O)N2[C@H]3CC[C@@H]2[C@H](N)C3)cc2nc(-c3cc4ccc5nc4n3CCCCCC(=O)N3CCC[C@H]53)n(C)c12 [Example 128]", "human PAD4 (Homo sapiens)", 7.89),
    ("C[C@H]1NC(=O)[C@@H]2C[C@H]2CCCC(F)(F)Cn2c(-c3nc4cc(C(=O)N5C[C@H](N)[C@@H]6CC[C@H]5C6)ccc4n3C3CC3)cc3ccc1nc32 [Example 914]", "human PAD4 (Homo sapiens)", 7.80),
    ("CCn1c(-c2cc3ccc4nc3n2CCCCCc2nc(Cl)ccc2C(=O)N[C@@H]4C)nc2cc(C(=O)N3C[C@H](N)[C@@H]4CC[C@H]3C4)cc(F)c21 [Example 939]", "human PAD4 (Homo sapiens)", 7.36),
    ("COc1cc(C(=O)N2C[C@H](N)CCN2C)cc2nc(-c3cc4ccc5nc4n3CCCCCCC(C)(C)C(=O)N[C@@H]5C)n(C)c12 [Example 299]", "human PAD4 (Homo sapiens)", 7.24),
    ("COc1cc(C(=O)N2C[C@H]3CC[C@@H]2[C@@H]3N)cc2nc(-c3cc4ccc5cc4n3CCCCCCC(C)(C)C(=O)N[C@@H]5C)n(C)c12 [Example 749]", "human PAD4 (Homo sapiens)", 7.77),
]

Lab note: next compound to report on.
### Prompt Give pIC50 for this entry on human PAD4 (Homo sapiens): COc1cc(C(=O)N2CCC[C@@H](N)C2)cc2nc(-c3cc4ccc5nc4n3CCCCCCCCS(=O)(=O)N5C)n(C)c12 [Example 937]
### Response 6.73

###

# pIC50 values compiled below
Target: human PAD4 (Homo sapiens, UniProt Q9UM07)
Construct: human PAD4 (NM_012387), A2-P663, was PCR amplified; His-SUMO (N, cleaved yes)
Assay: In vitro PAD4 BAEE biochemical assay
Conditions: BAEE substrate 3 mM, 5 nM PAD4, 2 mM calcium chloride; geometric mean of multiple experiments
Lab note — pIC50 values are minus log10 of concentrations in M.

See these solved cases before continuing.
# STRUCTURE, TESTED_SYSTEM, EXPERIMENTAL_VALUE
measured = [
    ("COc1cc(C(=O)N2CC[C@@H](OC)[C@@H](N)C2)cc2nc(-c3cc4ccc5nc4n3CCCc3cccc(c3)CC(=O)N[C@@H]5C)n(C)c12", "human PAD4 (Homo sapiens, UniProt Q9UM07)", 7.10),
    ("COc1cc(C(=O)N2[C@H]3CC[C@@H]2[C@H](N)C3)cc2nc(-c3cc4ccc5nc4n3CCCCc3cccc(n3)C(=O)N[C@@H]5C)n(C)c12", "human PAD4 (Homo sapiens, UniProt Q9UM07)", 6.26),
]

Lab note: next compound to report on.
### Prompt Fill in reported pIC50 for this entry: COc1cc(C(=O)N2[C@H]3CC[C@@H]2[C@H](N)C3)cc2nc(-c3cc4ccc5nc4n3CCCCCCC(=O)N3CCC[C@H]53)n(C)c12
### Response 7.82

###

Biological target: human PAD4 (Homo sapiens)
Construct: human PAD4 (NM_012387), A2-P663, was PCR amplified; His-SUMO (N, cleaved yes)
Assay: In vitro PAD4 BAEE biochemical assay
Settings: BAEE substrate 3 mM, 5 nM PAD4, 2 mM calcium chloride; geometric mean of multiple experiments
REPORTED_PROPERTY: log10(IC50) (log10 of the value in nM)
Scale: log10; quantity: IC50; unit before log: nM

# COMPOUND, log10(IC50)
rows = [
    ("COc1cc(C(=O)N2[C@H]3CC[C@@H]2[C@H](N)C3)cc2nc(-c3cc4ccc5nc4n3CCCCCCC(=O)Nc3ccncc3-5)n(C)c12 [Example 90]", 2.70),
    ("C[C@H]1NC(=O)c2ccnn2CCCCCn2c(-c3nc4cc(C(=O)N5C[C@H](N)[C@@H]6CC[C@H]5C6)cc(F)c4n3C3CC3)cc3ccc1nc32 [Example 912]", 1.23),
    ("COc1cc(C(=O)N2[C@H]3CC[C@@H]2[C@H](N)C3)cc2nc(-c3cc4ccc5nc4n3CCCCc3cccc(c3F)C(=O)N[C@@H]5C)n(C)c12 [Example 38]", 3.08),
]

### Prompt Fill in reported log10(IC50) for this entry: CO[C@@H]1CCN(C(=O)c2cc(Cl)c3c(c2)nc(-c2cc4ccc5nc4n2CCCCCc2nccnc2C(=O)N[C@@H]5C)n3C)C[C@@H]1N [Example 504]
### Response 2.24

### Prompt Fill in reported log10(IC50) for this entry: C[C@H]1NC(=O)[C@@H]2[C@@H](CCCC(F)(F)Cn3c(-c4nc5cc(C(=O)N[C@H]6CNCC[C@@H]6F)c(F)cc5n4C)cc4ccc1nc43)C2(F)F [Example 377]
### Response 1.51

### Prompt Fill in reported log10(IC50) for this entry: COc1cc(C(=O)N2CCC[C@@H](N)C2)cc2nc(-c3cc4ccc5nc4n3CCCCCCCC(=O)N[C@@H]5C)n(C)c12 [Example 282]
### Response 1.11
